target under test: CYP450 3A4 (Homo sapiens, UniProt P08684)
Sequence (P08684 whole entry): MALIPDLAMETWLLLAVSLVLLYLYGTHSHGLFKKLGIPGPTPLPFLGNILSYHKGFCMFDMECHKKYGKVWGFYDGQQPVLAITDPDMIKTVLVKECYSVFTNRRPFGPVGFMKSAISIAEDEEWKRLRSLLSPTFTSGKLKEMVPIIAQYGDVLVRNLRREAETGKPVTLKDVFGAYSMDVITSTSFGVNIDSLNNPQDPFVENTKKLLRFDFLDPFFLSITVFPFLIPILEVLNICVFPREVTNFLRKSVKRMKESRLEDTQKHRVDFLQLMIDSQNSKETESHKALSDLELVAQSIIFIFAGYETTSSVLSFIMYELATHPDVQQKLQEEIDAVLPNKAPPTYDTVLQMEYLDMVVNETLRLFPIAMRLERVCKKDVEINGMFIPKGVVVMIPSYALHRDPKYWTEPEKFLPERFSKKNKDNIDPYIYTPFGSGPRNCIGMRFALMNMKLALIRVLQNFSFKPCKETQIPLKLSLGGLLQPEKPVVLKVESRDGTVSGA
assay overview: CYP450 inhibition kit (drug-drug interaction), 3A4
pIC50: −log10 of the molar value.
Collected pIC50 values appear next to each entry.

{"columns": ["molecule", "target under test", "comparator", "pIC50"],
 "data": [
  ["OC(CNCCNCc1ccccc1)c1cc(C(F)(F)F)nc2c(C(F)(F)F)cccc12 (centres unmarked)", "CYP450 3A4 (Homo sapiens, UniProt P08684)", "=", 5.48],
  ["CC(C)NCC(O)c1cc(C(F)(F)F)nc2c(C(F)(F)F)cccc12 (centres unmarked)", "CYP450 3A4 (Homo sapiens, UniProt P08684)", "<", 4.40],
  ["C=CCNCC(O)c1cc(C(F)(F)F)nc2c(C(F)(F)F)cccc12 (centres unmarked)", "CYP450 3A4 (Homo sapiens, UniProt P08684)", "=", 4.74],
  ["CNCC(O)c1cc(C(F)(F)F)nc2c(C(F)(F)F)cccc12 (centres unmarked)", "CYP450 3A4 (Homo sapiens, UniProt P08684)", "=", 4.59],
  ["CCC(CC)CNCC(O)c1cc(C(F)(F)F)nc2c(C(F)(F)F)cccc12 (centres unmarked)", "CYP450 3A4 (Homo sapiens, UniProt P08684)", "=", 4.48]
]}
